Readings of growth for the listed compounds
Tested on: MALME-3M melanoma
test-protocol: NCI-60 one-dose screen, 48 h (100 = growth as untreated, 0 = no growth, -100 = all killed)
setup-conditions: 10 µM unless noted
About 83,000 compounds went through this panel and 20% of them were active in at least one assay; those are over-represented in the sample as a whole.

compound: COC(=O)c1ccc(NC(N)=NCC(C)(C)COc2ccc(C(F)(F)F)cc2)nc1
units: %
growth: 82.4
--
compound: O=C(Nc1ccc(F)cc1)Nc1ccc(Br)c(C(F)(F)F)c1
units: %
growth: -6.11
--
compound: Nc1ccc(S(=O)(=O)Nc2ccnn2-c2ccccc2)cc1
units: %
growth: 103
--
compound: O=C(O)c1cccc(S(=O)(=O)c2ccccc2)c1
units: %
growth: 87.7
--
compound: Cn1c2ccccc2c2ssc(=S)c21
units: %
growth: 81.9
--
compound: CCc1cccc(C)c1NC(=O)c1sc2nc3c(cc2c1N)CCCCC3
units: %
growth: 47
--
compound: CC(C)CNCC(=O)Nc1ccc(Cc2ccc(NC(=O)CNCC(C)C)cc2)cc1
units: %
growth: -23
--
compound: O=C(Nc1ccc(-n2cc(-c3ccncc3)c(-c3ccc(O)c(Cl)c3)n2)cc1)Nc1cc(C(F)(F)F)cc(C(F)(F)F)c1
units: %
growth: 92.1
--
compound: O=C(Nc1ccccc1F)Nc1ccccc1Cl
units: %
growth: 74
--
compound: COc1ccc(-c2[nH]c3ccccc3c2/C=C(\C#N)S(=O)(=O)c2ccccc2)cc1
units: %
growth: 73.6
--
compound: COc1ccc(SC2c3ccc(O)cc3Oc3nc(N)c(C#N)c(N)c32)cc1 (centres undefined)
units: %
growth: 99.3
--
compound: CCOc1ccc(NC(=O)Nc2cc(C(C)C)ccc2C)cc1
units: %
growth: 105
--
compound: CC(=O)c1cc2c(c(O)c1C)C(=O)C(=O)c1c(O)cccc1-2
units: %
growth: -83.1
--
compound: O=C1/C(=C/c2cccc3cnccc23)Cc2cc(F)ccc21
units: %
growth: 97.9
--
compound: O=C(Cn1c2ccccc2c2ccncc21)N/N=C\c1ccc2ccccc2c1
units: %
growth: 3.45
--
compound: CCCCOc1c(N)cccc1C(=O)OCCN(CC)CC
units: %
growth: 100
--
compound: CCc1cccc(-c2ccccc2)c1
units: %
growth: 114
--
compound: COC(=O)/C=C/C(=O)c1cc(C)cc(C)c1O
units: %
growth: 95.7
--
compound: O=C(/C=C/c1ccco1)c1cccc(Nc2nc(Nc3ccccc3)nc(Nc3ccccc3)n2)c1
units: %
growth: 110
--
compound: COc1cc(Cn2cc3c(c2)-c2onc(CO)c2CC3)cc(OC)c1OC
units: %
growth: 79.7
--
compound: COc1ccc(-c2nnc(SCC(=O)Nc3ccc(C(=O)/C=C/c4ccc(OC)c(OC)c4)cc3)o2)cc1
units: %
growth: 100
--
compound: CC(NCCC(c1ccccc1)c1ccccc1)c1ccccc1 (centres undefined)
units: %
growth: 74.1
--
compound: O=C(Nc1cccc(-n2ccc3c(NC(=O)c4ccccc4)nccc32)c1)c1cccc(C(F)(F)F)c1
units: %
growth: 48.3
--
compound: CCN(CC)CCNCC(O)Cc1ccc(OC)cc1 (centres undefined)
units: %
growth: 113
--
compound: CC(C)(C)NC(C1=CC(C)(C)c2ccccc2C1=O)c1ccccc1 (centres undefined)
units: %
growth: -43
--
compound: CC(Cl)(CCl)CS(=O)(=O)c1ccc(Cl)cc1 (centres undefined)
units: %
growth: 114
--
compound: COC(=O)c1oc2c(C(C)=O)c(OCCN3CCCCC3)ccc2c1C
units: %
growth: 40.9
--
compound: Nc1c(C(=O)O)[nH]c(=O)[nH]c1=O
units: %
growth: 110
--
compound: COc1ccc(C(=O)NC(=O)Nc2ccc3c(c2)NC(=O)/C3=C\c2[nH]c(C)c(CCC(=O)O)c2C)c(F)c1
units: %
growth: 40.6
--
compound: CC(=S)Nc1ccccc1
units: %
growth: 89
--
compound: CC1CCc2cc(F)cc3c(=O)c(C(=O)O)cn1c23 (centres undefined)
units: %
growth: 99.9
--
compound: Cc1cccc(CC(=O)c2ccccc2)n1
units: %
growth: 92.1
--
compound: Cc1cc[n+](CCCC[n+]2ccc(C)cc2)cc1
units: %
growth: 97.6
--
compound: Cn1c(I)c(C#C[Si](C)(C)C)c(=O)[nH]c1=O
units: %
growth: -65.9
--
compound: CC(C)C1(C(C)C)NC(=O)NC1=O
units: %
growth: 163
--
compound: C=CC(=O)Nc1cccc(Nc2nc(Nc3ccc(OCCOC(F)F)cc3)ncc2F)c1
units: %
growth: 46.3
--
compound: C#C[C@@]1(O)[C@@H](CO)O[C@@H](n2cc(C(F)(F)F)c3c(N)ncnc32)[C@@H]1O
units: %
growth: -22
--
compound: CCOC(=O)c1[nH]c(-c2ccc(Cl)cc2)cc1-c1cccnc1
units: %
growth: 72.7
--
compound: COc1ccc(Cl)cc1NC(=O)c1cc2c([nH]1)-c1nc(NC(=O)C(C)C)sc1CC2
units: %
growth: 104
--
compound: COc1ccc(Cl)cc1NC(=O)c1cc2c([nH]1)-c1nc(NC(=O)C(C)(C)C)sc1CC2
units: %
growth: 74.1
--
compound: O=C(CSc1nnc(-c2ccc(Cl)cc2)o1)Nc1ccc(C(=O)/C=C/c2ccccc2)cc1
units: %
growth: 106
--
compound: Cl[C@@H]1CCO[C@H](c2cc3ccccc3c3ccccc23)C1
units: %
growth: 106
--
compound: COc1cc([C@@H]2c3cc4c(cc3C(OC3O[C@@H]5COC(C)O[C@H]5[C@H](O)[C@H]3O)C3COC(=O)[C@@H]32)OCO4)cc(OC)c1O (some centres undefined)
units: %
growth: 40.2
--
compound: c1cncc(-c2nc3ccccc3[nH]2)c1
units: %
growth: 109

====

System: HCC-2998 colon
test-protocol: NCI-60 one-dose screen, 48 h
setup-conditions: 10 µM unless noted
This is part of a sample that, as a whole, favours compounds with a hit. Of some 83,000 tested, about 20% had one in any assay. The source made the active and inactive calls. How the source made its calls: active means growth percent below 10; inactive means the rest.
Possible outcomes: class 1 = active, class 0 = inactive

compound: COc1ccc(Cl)cc1NC(=O)c1cc2c([nH]1)-c1nc(NC(=O)C(C)(C)C)sc1CC2
label-value: class 0

compound: CC(C)(C)C(=O)Nc1nc2c(s1)CCc1ccn(S(=O)(=O)c3ccccc3)c1-2
label-value: class 0

compound: O=[N+]([O-])c1ccc(NS(=O)(=O)c2cc(Cl)ccc2Cl)c2ccccc12
label-value: class 0

compound: CC(C)(C)NC(C1=CC(C)(C)c2ccccc2C1=O)c1ccccc1 (centres undefined)
label-value: class 1

compound: COc1ccc(-c2nn(-c3ccc(NC(=O)c4cc(C(F)(F)F)cc(C(F)(F)F)c4)cc3)cc2-c2ccncc2)cc1Cl
label-value: class 0

compound: COc1ccc(-c2nnc(SCC(=O)Nc3ccc(C(=O)/C=C/c4ccc(Cl)cc4)cc3)o2)cc1OC
label-value: class 0

compound: O=C(O)c1cn(C2CC2)c2cc(N3CCN(C(=O)CSc4nc(NS(=O)(=O)c5ccccc5)cc(=O)[nH]4)CC3)c(F)cc2c1=O
label-value: class 0

compound: CCOC(=O)CSc1nnc(-c2cc3c([nH]c4ccccc43)c(-c3cccc(O)c3)n2)n1-c1ccc(C)cc1
label-value: class 0

compound: FC(F)(F)c1cccc([Si](F)(c2cccc(C(F)(F)F)c2)c2cccc(C(F)(F)F)c2)c1
label-value: class 0

compound: O=C(NC(=S)Nc1ccc(Cl)cc1)c1ccccc1
label-value: class 0

compound: C=C1C(=O)O[C@H]2[C@H]1CC/C(COC(=O)c1ccc(C#N)cc1)=C\CC[C@@]1(C)O[C@@H]21
label-value: class 0

compound: NC(N)=N/N=C/c1ccc([N+](=O)[O-])cc1
label-value: class 0

compound: CC(C(C(=O)N1CCCCC1)N1CCCCC1)N1CCCCC1 (centres undefined)
label-value: class 0

compound: O=C(Nc1ccc(F)cc1)Nc1ccc(Br)c(C(F)(F)F)c1
label-value: class 0

compound: COc1ccc(-c2nnc(SCC(=O)N3CCN(c4cc5c(cc4F)c(=O)c(C(=O)O)cn5C4CC4)CC3)o2)cc1OC
label-value: class 0

compound: O=C(NCCNc1nccc(-c2c(-c3cccc(O)c3)nc3sccn23)n1)c1ccc(N2CCOCC2)c(C(F)(F)F)c1
label-value: class 0

compound: O=C(O)c1ccc2nc(-c3ccc(OCCCCCOc4ccc(-c5nc6ccc(C(=O)O)cc6[nH]5)cc4)cc3)[nH]c2c1
label-value: class 0

compound: Nc1ncnc2c1ncn2C1OC(COC(c2ccccc2)(c2ccccc2)c2ccccc2)C(O)C1O (centres undefined)
label-value: class 0

compound: CC(NCCC(c1ccccc1)c1ccccc1)c1ccccc1 (centres undefined)
label-value: class 1

====

System: PC-3 prostate
test-protocol: NCI-60 one-dose screen, 48 h
setup-conditions: 10 µM unless noted
Compounds without any hit were thinned out: in the full panel of roughly 83,000, 20% have a hit. Calls of active or inactive are those of the source. The calls were made as follows: active = growth percent below 10; inactive = the rest.
Possible outcomes: active, inactive

compound: O=C1C(Cl)=C(Nc2ccccc2)C(=O)C(Cl)=C1Nc1ccccc1
label-value: inactive
--
compound: O=C1C(Cl)=C(Nc2cccc3cc4ccccc4nc23)C(=O)c2ccccc21
label-value: inactive
--
compound: CC(C)CNCC(O)COc1ccc(C(C)(C)c2ccc(OCC(O)CNCC(C)C)cc2)cc1 (stereo unspecified)
label-value: inactive
--
compound: Cc1ccc2c(c1)Nc1ccc(C)cc1C2(C)C
label-value: inactive
--
compound: O=C1OC(c2ccc(-c3ccccc3)cc2)=C/C1=C/C=C/c1ccccc1
label-value: inactive
--
compound: O=[N+]([O-])c1cccc(C2c3ccccc3Oc3ccccc32)c1
label-value: inactive
--
compound: NC(N)=N/N=C/c1ccc([N+](=O)[O-])cc1
label-value: inactive
--
compound: Cc1cc(NCCN(C(C)C)C(C)C)nc(/N=C(\N)Nc2ccc(Cl)c(C(F)(F)F)c2)n1
label-value: active
--
compound: Oc1ccccc1/C=N/c1ccccn1
label-value: inactive
--
compound: CCCC(C)(C)COC(=O)c1cccc(N)c1
label-value: inactive
--
compound: CCOc1ccc(Cc2nccc3cc(OCC)c(OCC)cc23)cc1OCC
label-value: inactive
